# Tested on: matched DNA complement 5′-d(AGCAAAXAACGC)-3′, X=A
# Assay comment: Thermal stability (Tm) of 12mer oligomeric compounds duplexed to matched DNA complement
# Format: binding
# Setup conditions: relative to unmodified DNA 12mer ISIS 438705; 1.2 μM, 10 mM sodium phosphate buffer pH 7.2, 100 mM NaCl, 0.1 mM EDTA
# Method: The oligomeric compounds in Table 1 were evaluated for thermal stability (Tm) using the method described herein. […] Tm's were determined using a Cary 100 Bio spectrophotometer with the Cary Win UV thermal program was used to measure absorbance vs. temperature. […] The concentrations, determined at 85° C. was 1.2 μM after mixing of equal volumes of selected oligomeric compound and complementary matched or mismatched RNA. […]
Catalogue of ΔTm/mod vs DNA, Matched, X = A readings, one per entry.
Property measured: ΔTm/mod vs DNA, Matched, X = A

# Substance, Property measured, Experimental value
measured = [
    ("ISIS 560180: 12mer GCGTTTaTTTGCT with one α-L-LNA nucleoside, phosphodiester linkages, SEQ ID No. 5 (DNA GCGTTT_{a}TTTGCT; as printed in the source, key not given here)", "ΔTm/mod vs DNA, Matched, X = A", "+1.4 °C"),
    ("ISIS 438705: unmodified 12mer DNA GCGTTTTTTGCT, phosphodiester linkages, SEQ ID No. 5, purchased from commercial sources (unmodified DNA)", "ΔTm/mod vs DNA, Matched, X = A", "0 (ref) ° C."),
    ("ISIS 438707: 12mer GCGTTT1TTTGCT with one LNA nucleoside, phosphodiester linkages, SEQ ID No. 5 (DNA GCGTTT_{1}TTTGCT; as printed in the source, key not given here)", "ΔTm/mod vs DNA, Matched, X = A", "+1.7 °C"),
    ("A01: 12mer GCGTTTbTTTGCT with one α-L-TriNA (α-L-tricyclic nucleic acid) nucleoside, phosphodiester linkages, SEQ ID No. 5 (DNA GCGTTT_{b}TTTGCT; as printed in the source, key not given here) [Compound A01]", "ΔTm/mod vs DNA, Matched, X = A", "+2.6 °C"),
]
